Listing: IC50 of selected molecules
target: Vascular endothelial growth factor receptor 2 (Homo sapiens); assay: Inhibition of VEGFR-2 (unknown origin) by microfluidic assay relative to control
Sequence (P35968 whole entry): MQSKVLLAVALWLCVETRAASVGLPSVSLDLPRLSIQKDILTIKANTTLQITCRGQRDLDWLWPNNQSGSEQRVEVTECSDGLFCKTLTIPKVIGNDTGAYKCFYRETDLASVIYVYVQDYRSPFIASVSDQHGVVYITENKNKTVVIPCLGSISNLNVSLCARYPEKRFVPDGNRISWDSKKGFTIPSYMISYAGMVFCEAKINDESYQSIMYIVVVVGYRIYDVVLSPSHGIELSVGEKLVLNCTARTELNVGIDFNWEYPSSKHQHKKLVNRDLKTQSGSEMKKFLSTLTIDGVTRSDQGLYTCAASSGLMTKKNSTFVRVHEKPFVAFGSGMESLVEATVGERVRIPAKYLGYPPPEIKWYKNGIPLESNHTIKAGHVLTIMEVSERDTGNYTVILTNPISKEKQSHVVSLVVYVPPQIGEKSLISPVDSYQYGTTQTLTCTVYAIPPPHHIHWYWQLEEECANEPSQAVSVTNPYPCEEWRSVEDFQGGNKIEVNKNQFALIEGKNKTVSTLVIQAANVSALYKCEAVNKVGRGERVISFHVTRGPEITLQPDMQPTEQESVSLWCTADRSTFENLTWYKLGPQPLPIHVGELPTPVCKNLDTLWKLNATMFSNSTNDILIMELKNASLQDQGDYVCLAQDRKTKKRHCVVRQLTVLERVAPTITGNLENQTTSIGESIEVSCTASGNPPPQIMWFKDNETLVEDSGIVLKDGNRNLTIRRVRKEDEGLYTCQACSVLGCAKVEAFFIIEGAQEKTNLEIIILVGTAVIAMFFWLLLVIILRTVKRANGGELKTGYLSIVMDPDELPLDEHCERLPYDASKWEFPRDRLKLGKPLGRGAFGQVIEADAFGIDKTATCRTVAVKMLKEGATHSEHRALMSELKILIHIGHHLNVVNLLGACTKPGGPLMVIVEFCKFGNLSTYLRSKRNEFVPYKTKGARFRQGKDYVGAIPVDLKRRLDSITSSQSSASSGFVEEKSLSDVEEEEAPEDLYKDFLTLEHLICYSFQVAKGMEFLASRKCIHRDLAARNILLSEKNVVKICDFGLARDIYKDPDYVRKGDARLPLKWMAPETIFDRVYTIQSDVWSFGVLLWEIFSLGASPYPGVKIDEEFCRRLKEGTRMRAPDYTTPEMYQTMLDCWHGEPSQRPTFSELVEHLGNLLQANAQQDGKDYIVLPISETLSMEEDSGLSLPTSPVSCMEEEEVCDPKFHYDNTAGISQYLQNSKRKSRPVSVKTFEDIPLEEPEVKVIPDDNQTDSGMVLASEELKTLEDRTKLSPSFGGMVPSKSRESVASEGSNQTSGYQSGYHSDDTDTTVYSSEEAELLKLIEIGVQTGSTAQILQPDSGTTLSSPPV
Returns: string containing the numeric result and its unit.

moleculeSmiles	IC50
Cc1[nH]c(-c2ccccc2)c(-c2ccccc2)c1-c1nnc(O)c2nn(-c3ccccc3)cc12	3.45 µM

Shifting focus to the molecule that follows.
Which IC50 is listed for Cc1[nH]c(-c2ccccc2)c(-c2ccccc2)c1C(=O)c1cn(-c2ccccc2)nc1C(=O)Nc1ccccc1 ?
3.45 µM

====

biological target: Insulin receptor (Homo sapiens); assay: Inhibition of InsR (unknown origin) at 30 uM by microfluidic assay relative to control
propertyLabel: inhibition

Consider the reported inhibition for these molecules:
moleculeSmiles	inhibition
Cc1[nH]c(-c2ccccc2)c(-c2ccccc2)c1C(=O)c1cn(-c2ccccc2)nc1-c1ccccc1	4%
Cc1[nH]c(-c2ccccc2)c(-c2ccccc2)c1-c1nnc(O)c2nn(-c3ccccc3)cc12	12%

Entry under review: CCOC(=O)c1nn(-c2ccccc2)cc1C(=O)c1c(C)[nH]c(-c2ccccc2)c1-c1ccccc1 . Reported inhibition?
2%

Form field: reported inhibition of Cc1[nH]c(-c2ccccc2)c(-c2ccccc2)c1-c1ccc(NC(=O)c2ccccc2)c(=O)o1
3%

Quick one: inhibition of Cc1[nH]c(-c2ccccc2)c(-c2ccccc2)c1C(=O)c1coc2ccc(O)cc12 ?
2%

Can you share its inhibition? I mean this molecule: CC(=O)c1nn(-c2ccccc2)cc1C(=O)c1c(C)[nH]c(-c2ccccc2)c1-c1ccccc1
2%

Reported inhibition, molecule Cc1[nH]c(-c2ccccc2)c(-c2ccccc2)c1C(=O)c1cn(-c2ccccc2)nc1C(=O)Nc1ccccc1 : ____
33%

Look up inhibition for this molecule: Cc1[nH]c(-c2ccccc2)c(-c2ccccc2)c1C(=O)c1coc2c1cc(O)c1ccccc12
32%

For Cc1[nH]c(-c2ccccc2)c(-c2ccccc2)c1-c1nnc(C)c2nn(-c3ccccc3)cc12 , what is its reported inhibition?
1%

====

Quick reference for inhibition among some compounds
biological target: Mitogen-activated protein kinase 1 (Homo sapiens); test: Inhibition of Erk2 (unknown origin) at 30 uM by microfluidic assay relative to control
Give the quantity in %, number only.

moleculeSmiles	unitSymbol	valueMeasured
Cc1[nH]c(-c2ccccc2)c(-c2ccccc2)c1C(=O)c1coc2ccc(O)cc12	%	3

Item CCOC(=O)c1nn(-c2ccccc2)cc1C(=O)c1c(C)[nH]c(-c2ccccc2)c1-c1ccccc1 with Mitogen-activated protein kinase 1 (Homo sapiens) - inhibition?
32

Request: inhibition, test system Mitogen-activated protein kinase 1 (Homo sapiens), entry Cc1[nH]c(-c2ccccc2)c(-c2ccccc2)c1-c1nnc(C)c2nn(-c3ccccc3)cc12
32

Tell me reported inhibition for Cc1[nH]c(-c2ccccc2)c(-c2ccccc2)c1C(=O)c1cn(-c2ccccc2)nc1C(=O)Nc1ccccc1 , tested with Mitogen-activated protein kinase 1 (Homo sapiens).
24

====

biological target: Tyrosine-protein kinase Fyn (Homo sapiens) (UniProt P06241); experiment: Inhibition of FYN (unknown origin) at 30 uM by microfluidic assay relative to control
Sequence (P06241 2-537 limits assumed): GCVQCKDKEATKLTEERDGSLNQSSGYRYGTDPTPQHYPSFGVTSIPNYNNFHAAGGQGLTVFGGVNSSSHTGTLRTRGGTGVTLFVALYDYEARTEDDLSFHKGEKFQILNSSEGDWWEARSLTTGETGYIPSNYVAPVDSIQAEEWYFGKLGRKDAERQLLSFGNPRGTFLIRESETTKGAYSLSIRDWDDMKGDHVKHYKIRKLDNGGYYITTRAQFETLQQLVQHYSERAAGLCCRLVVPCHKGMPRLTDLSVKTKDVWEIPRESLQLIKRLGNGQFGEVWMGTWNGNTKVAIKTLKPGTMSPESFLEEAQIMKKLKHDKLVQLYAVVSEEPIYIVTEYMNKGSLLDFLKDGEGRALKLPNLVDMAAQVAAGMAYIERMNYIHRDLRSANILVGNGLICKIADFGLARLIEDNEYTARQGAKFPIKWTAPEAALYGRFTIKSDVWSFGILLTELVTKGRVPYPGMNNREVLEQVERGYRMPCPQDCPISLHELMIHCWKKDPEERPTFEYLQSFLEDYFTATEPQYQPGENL
Overview of recorded inhibition for various molecules
Give the number; % is assumed, so skip it.

These solved cases illustrate the format of a correct answer.
moleculeSmiles	inhibition (%)
Cc1[nH]c(-c2ccccc2)c(-c2ccccc2)c1C(=O)c1coc2c1cc(O)c1ccccc12	21
Cc1[nH]c(-c2ccccc2)c(-c2ccccc2)c1C(=O)c1coc2ccc(O)cc12	23

What inhibition value was documented for this molecule, Cc1[nH]c(-c2ccccc2)c(-c2ccccc2)c1-c1ccc(NC(=O)c2ccccc2)c(=O)o1 ?
21

====

target: Hepatocyte growth factor receptor (Homo sapiens) (UniProt P08581); experiment: Inhibition of MET (unknown origin) at 30 uM by microfluidic assay relative to control
Sequence (P08581 whole entry): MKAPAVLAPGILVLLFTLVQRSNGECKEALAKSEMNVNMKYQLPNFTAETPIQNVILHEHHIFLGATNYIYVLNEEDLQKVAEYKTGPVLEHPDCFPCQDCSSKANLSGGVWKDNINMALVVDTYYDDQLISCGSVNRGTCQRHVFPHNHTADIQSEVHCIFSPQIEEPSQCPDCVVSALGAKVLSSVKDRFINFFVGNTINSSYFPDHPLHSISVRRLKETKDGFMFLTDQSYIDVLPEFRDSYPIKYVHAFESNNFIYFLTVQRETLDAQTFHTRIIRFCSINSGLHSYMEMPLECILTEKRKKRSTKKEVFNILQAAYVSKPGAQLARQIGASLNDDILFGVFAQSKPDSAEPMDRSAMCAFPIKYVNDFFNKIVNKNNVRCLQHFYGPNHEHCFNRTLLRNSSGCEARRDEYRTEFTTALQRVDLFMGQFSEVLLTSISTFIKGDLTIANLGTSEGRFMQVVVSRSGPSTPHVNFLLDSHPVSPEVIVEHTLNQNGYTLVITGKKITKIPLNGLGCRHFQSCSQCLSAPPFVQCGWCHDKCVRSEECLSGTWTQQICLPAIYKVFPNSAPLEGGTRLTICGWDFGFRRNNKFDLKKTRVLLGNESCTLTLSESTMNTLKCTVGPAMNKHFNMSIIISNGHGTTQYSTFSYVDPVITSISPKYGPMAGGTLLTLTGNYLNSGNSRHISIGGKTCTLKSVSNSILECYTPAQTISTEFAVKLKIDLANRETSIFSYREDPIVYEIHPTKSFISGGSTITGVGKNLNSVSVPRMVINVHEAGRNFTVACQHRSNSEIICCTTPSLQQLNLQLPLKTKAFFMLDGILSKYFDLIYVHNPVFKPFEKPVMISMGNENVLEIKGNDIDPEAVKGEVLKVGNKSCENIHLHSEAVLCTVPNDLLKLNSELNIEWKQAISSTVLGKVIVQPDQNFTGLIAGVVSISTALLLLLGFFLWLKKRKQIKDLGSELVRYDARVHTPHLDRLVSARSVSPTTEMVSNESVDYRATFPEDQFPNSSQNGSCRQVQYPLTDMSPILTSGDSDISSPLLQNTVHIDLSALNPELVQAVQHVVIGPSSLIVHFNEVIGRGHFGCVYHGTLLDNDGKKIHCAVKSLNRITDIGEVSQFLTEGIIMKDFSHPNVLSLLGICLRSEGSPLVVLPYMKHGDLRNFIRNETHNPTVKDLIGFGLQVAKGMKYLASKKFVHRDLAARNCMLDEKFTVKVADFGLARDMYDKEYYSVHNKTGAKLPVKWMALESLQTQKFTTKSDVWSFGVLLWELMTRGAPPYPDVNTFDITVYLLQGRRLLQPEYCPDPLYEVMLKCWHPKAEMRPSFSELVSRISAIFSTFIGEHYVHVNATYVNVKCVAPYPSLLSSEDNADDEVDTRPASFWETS
propertyLabel: inhibition
Number plus unit, in that order.

Worked set:
moleculeSmiles	inhibition
CC(=O)c1nn(-c2ccccc2)cc1C(=O)c1c(C)[nH]c(-c2ccccc2)c1-c1ccccc1	32%
CCOC(=O)c1nn(-c2ccccc2)cc1C(=O)c1c(C)[nH]c(-c2ccccc2)c1-c1ccccc1	6%
Cc1[nH]c(-c2ccccc2)c(-c2ccccc2)c1C(=O)c1coc2ccc(O)cc12	32%
Cc1[nH]c(-c2ccccc2)c(-c2ccccc2)c1-c1nnc(O)c2nn(-c3ccccc3)cc12	4%

Please turn your attention to the following entry.
Quick check: inhibition of Cc1[nH]c(-c2ccccc2)c(-c2ccccc2)c1C(=O)c1coc2c1cc(O)c1ccccc12 ?
34%

====

biological target: Tyrosine-protein kinase Lyn (Homo sapiens) (UniProt P07948); test: Inhibition of LYN (unknown origin) at 30 uM by microfluidic assay relative to control
Sequence (P07948 2-512 limits assumed): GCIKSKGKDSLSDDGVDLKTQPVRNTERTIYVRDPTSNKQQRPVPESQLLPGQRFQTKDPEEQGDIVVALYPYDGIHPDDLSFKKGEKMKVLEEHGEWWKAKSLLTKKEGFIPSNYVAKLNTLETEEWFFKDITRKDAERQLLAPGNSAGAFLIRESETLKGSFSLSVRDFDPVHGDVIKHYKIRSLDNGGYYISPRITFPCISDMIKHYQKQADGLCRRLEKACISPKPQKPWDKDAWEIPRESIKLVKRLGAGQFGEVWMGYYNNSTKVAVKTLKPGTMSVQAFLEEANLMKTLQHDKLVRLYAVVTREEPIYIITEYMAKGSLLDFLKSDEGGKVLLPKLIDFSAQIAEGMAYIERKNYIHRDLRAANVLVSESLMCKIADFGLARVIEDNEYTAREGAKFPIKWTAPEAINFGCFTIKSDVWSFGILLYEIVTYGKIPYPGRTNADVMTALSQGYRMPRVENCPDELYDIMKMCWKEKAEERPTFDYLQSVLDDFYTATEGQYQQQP
propertyLabel: inhibition (%)
Number in %, nothing else.

Any idea what its inhibition is? The compound is CC(=O)c1nn(-c2ccccc2)cc1C(=O)c1c(C)[nH]c(-c2ccccc2)c1-c1ccccc1
3

Looking for the measured inhibition of Cc1[nH]c(-c2ccccc2)c(-c2ccccc2)c1C(=O)c1coc2ccc(O)cc12 , can you help?
21

For the compound shown here, Cc1[nH]c(-c2ccccc2)c(-c2ccccc2)c1C(=O)c1coc2c1cc(O)c1ccccc12 , give the reported inhibition.
34

Item Cc1[nH]c(-c2ccccc2)c(-c2ccccc2)c1-c1ccc(NC(=O)c2ccccc2)c(=O)o1 has what recorded inhibition?
33
